- System: MS2 coat protein
- procedureSummary: apparent KD of MS2 coat protein; designed switch direction (-1 OFF switch, 1 ON switch): -1; higher = weaker reporter binding
- conditionParameters: input ligand: none
measuredEndpoint: apparent KD of MS2 coat protein (nM)
Record the value in nM, omitting the unit from your answer.

Query :: Report apparent KD of MS2 coat protein for CUGUUUUUCGCAGGAUAUGCUCCUCCAUUAUUUGCAGAAGGGCGUUGAACAUGAGGAUCACCCAUGUAUGGUAAUGACUAUUGC [JR_ExcNG1_Sub067] (Eterna round: R96, puzzle: Exclusion NG 1) please.
Result :: 22.4

Query :: Can you check AAAUCACAUGAGGAUCACCCAUGUGAGGAUAUGAUACUAUGUACUUCGGUACAUAGUAUCAGAAGGCAUAUGGA [Ex1-3: 32] (Eterna round: R96, puzzle: Exclusion 1) next?
Result :: 23.7

Query :: Can you check UAGCAUUGCCAAAGGUAGUGCAUUACAUGAGGAUCACCCAUGUAGGAUAUGGUAGGCAAAGCUUACCAGAAGGACAUGAUAAUU [Mat - Exclusion NG 3 - Mod of JL - D16] (Eterna round: R96, puzzle: Exclusion NG 3) next?
Result :: 47.8

Query :: Can you check GCAGCAUAGUUUACUAACUGUUACAUGAGGAUCACCCAUGUUGAGGAUAUGGUCUGGAUUACAGGCCAGAAGGCGACAAGCUGC [Eli exng3 - 028] (Eterna round: R96, puzzle: Exclusion NG 3) next?
Result :: 16.9

Query :: Can you check AAAAAAAACAAGCUUAGGGACAUGAGGAUCACCCAUGUUCGUCUUAUAAAAAUAAAAAUAAAAAACAAAAAAUAAAA [Sensor V2: 53] (Eterna round: R96, puzzle: Sensor v2, turn-off variant) next?
Result :: 24.1

----------
- System: K4 kissing-loop RNA reporter;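 further: bound reporter read as fluorescence of individual clusters on recovered sequencing chips by microscopy, with normalized cluster intensities fitted with a binding model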
- procedureSummary: apparent KD of K4 kissing-loop reporter; higher = weaker reporter binding
- conditionParameters: Eterna round: R107; input ligand: arginine 13.2 mM
measuredEndpoint: apparent KD of K4 kissing-loop reporter (nM)
Record the value in nM, omitting the unit from your answer.

Query :: Report apparent KD of K4 kissing-loop reporter for GUACGCUCUCGAGUGAUGUUCGGUAAUCGCUAGGAUAUCGCUUUUGCGAGAAGGAGCGGAAUGAGGAAACUCGUUCUGAGUGUAC [FMN A 22] please.
Result :: 295

Query :: Can you check CCGAUGGGUACAGGAUAUGCCAGUGAUGUUGGUUUAGAUGGACCCAGAAGGAGACACCAGACGGAGGCAGAAGGGUAGCAAGGGA [Raarriis] next?
Result :: 108

Query :: Can you check UGUCAUUGGUCUGAUACCAGUUGGGACGAAUACGUCCAACUGGAGUGAUGUUCCUAAAACAACCCUUGGCAGCAGACCGAUGACU [TheoBS 13 #SwitchBubble 13 #StaticStem] next?
Result :: 782

Query :: Can you check AAAAUAAAUCAGUGAUGUUGGUAUCCGGAUACCAGCGAUAAUCAUCGCCCUUGGCAGCCGCGGACGUACAAAAUAAGUACGUCCU [MatMod 15 - Jieux - Same State - Theophylline A] next?
Result :: 89.2

Query :: Can you check UACAGGGAUAGUGAUGUUAUCCCAUGUGAUACCAGUGUCAUCCAACACCCUUGGCAGCAUACGGGCAGUGAUGUUGUUCUUGGUA [#17 K4 Theophylline A Exclusion] next?
Result :: 75.4

Query :: Can you check CACUUACGUAGUGAUGUUACGAUCUCUGAUACCAGACAACUCUAAGUCCCUUGGCAGCAGUCAUUUUGCUUAGUAUUUACUCAAA [JR_ExcTheophyA_Sub016] next?
Result :: 650

Query :: Can you check AGCCUUACAUCGGCCGCCACUUCCCUGGCAGUGAUGUUGCCGUAGACAAUCAUUCUACCCUGGAGAAGGACCGGGAUGCAGAAAC [theeternabot_sameState_KL_Trp_B_8] next?
Result :: 185

Query :: Can you check UCGCAAAAGUCGGCCGCCACUCCGGGCCCUAUAAAUGGGCGCAGUGAUGUUGCGGCUAGGCCUCUGAGGACCGGGACUUUGUAGC [Tixelequ] next?
Result :: 119

Query :: Can you check CGAGUGAUGUUCGUUCGUUUAUUUCGGUGACAGGAUAUGCGGAAACGCAGAAGGGUCACCUUUGGGUUACCGGAAUUAACGUUAU [Ex FMN A 30] next?
Result :: 455

Query :: Can you check GGUGUUGUUUGUGCUGUUUUCUUUGUUUCUCGAGGACCGGUACGGCCGCCACUCGAGUGAUGUUUGGGUAGCGAUGUUUGUUAGU [Bdazzled - #2 - Exc. Tryptophan A] next?
Result :: 280

Query :: Can you check AGGAUGUAGUGAUGUUAUAUAAAAGGUAAACGAGGACCGGUACGGCCGCCACUCGAAGCGGCUGCUAAGAGGGAAAGAAGAGGAA [ExTryptoA.E] next?
Result :: 464

Query :: Can you check GAUUCAGUGAUGUUGGAAGGCGAGCGGGAUACCAGCCAAGACUCAGGCCCUUGGCAGCCCACAUAUCCCACGUAGAUAGUAGCUC [Same State - Theophylline A (Freestyle 13)] next?
Result :: 104

Query :: Can you check AUGUCUAAUACGGCCGCCACUCGAGCAGUGAUGUUGCUCAGUAAUGGUCAUCGUCGUACAUGCCCGAGGACCGGGUAUUGAUUUG [Remain] next?
Result :: 122

Query :: Can you check UUUCUUUUAAUAACACUUUAUACAACUGAAGGAGCGACAAUAAAGUCAGGUAGGUCGCAGAAUUAAUGAGUGAUGUUCAUAUUUA [JR_ExcArginiA_Sub012] next?
Result :: 197

Query :: Can you check AUAUGCUUAGCGGCCGCCACUCCAAUUGGCCGAAAGGCCUGAUACCGAGUGAUGUUCGGUUGGAGGAGGACCGGGCUAGGCGUAU [#2 Exclusion - Tryptophan B Attempt #1 (HarryS)] next?
Result :: 139

Query :: Can you check GAUCUGAACGAAAGUUCGGAUCAGUCCGAUACCAGUAUGGAUUCAUACCCUUGGCAGCGGAAAUCUGCUAUGGAGUGAUGUUCCA [Theophylline A K4 14] next?
Result :: 328

Query :: Can you check AAUAAUAGUUGAGCAGGCGUGGUCUGAGAUACCAGUGAUUUCGAUCACCCUUGGCAGCUCAGCAUGAGUGAUGUUCAUGCUAUUC [Theo A Ex t10] next?
Result :: 114

Query :: Can you check UUUAUUAAGACGGCCGCCACUGAAUUAGAGUGAUGUUCUAAAAUUACUAAAUUAAAUUUAUUCAACAGGACCGGGUCAAUUAUUA [JR_SSTryptoB_Sub010] next?
Result :: 405

Query :: Can you check GGAUCCACCAGUGAUGUUGGAGAAAACUCCAAGGAUAUGACGAAAGUCAGAAGGUGGUAGACUGGGCAAAGUCCGGUCGGAUCCA [FmnA10 G66] next?
Result :: 68.5

Query :: Can you check GGGAAUUACGGAGGAUAUGCACUGAGGAGGAGAAUAUAGUGAUGUUAUAUAAGAGGAAGGAGAAGAGUAGAAGGCCGUGGAAAGG [SSFMNB.D] next?
Result :: 161

Query :: Can you check AAUACGAAGCAGUGAUGUUGCUUAUGAGAAGGAGCGCACGAAAGUGCAGGUAGGUCGCUCAGCCAUGUGGACGAAAACGUCCACA [whbob_SS_Arginine_A_sa109] next?
Result :: 102

Query :: Can you check UAAUUUAUGUCUUUAAUUUUAUUAUCAGAUACCAGUGAUUUAUGACACCCUUGGCAGCUGUAUUGAGUGAUGUUCUUAUAUUAAA [JR_Nu_ExcTheophyA_Sub023] next?
Result :: 111

Query :: Can you check CCUUCUCUUGAUAGUGAUGUUGUCAAGGGCAAGGAUAUCAUCUUAAUGAGAAGGUGUCCUUGAUAACAUGGAGGUCUGAAACAGA [Omei KL FMN A Exc C v7] next?
Result :: 305

----------
- Tested on: MS2 coat protein
- procedureSummary: apparent KD of MS2 coat protein; designed switch direction (-1 OFF switch, 1 ON switch): -1; higher = weaker reporter binding
- conditionParameters: Eterna round: R95; input ligand: microRNA oligo, concentration not stated
measuredEndpoint: apparent KD of MS2 coat protein (nM)
Record the value in nM, omitting the unit from your answer.

Query :: Please tell me: apparent KD of MS2 coat protein of AGAAGAAAAGAGAUUUGCUCGUCUUAUAAGUAUGAAGUAACAUGAGGAUCACCCAUGUAAGUCUAGUGAGAAGGAAG [JR_SV3TOV2_Sub001] (puzzle: Sensor v3, turn-off variant 2) , system MS2 coat protein?
Result :: 50

Query :: Can you check CUGGUCCGAGGAUAUAUUAUGUGAUACAUGAGGAUCACCCAUGUUAUAUGAUGGAUGUAAAUAGAAGGCGGACUAG [JL-ex5-3.15] (puzzle: Exclusion 5) next?
Result :: 43.4

Query :: Can you check CUGGUCCGAGGAUAUAUUAAGUGAUACAUGAGGAUCACCCAUGUUAUUUGAUGGAUGUAAAUAGAAGGCGGACUAG [JL-ex5-3.17] (puzzle: Exclusion 5) next?
Result :: 38.9

Query :: Can you check CUGGUGUGAGGAUAUCAGGACACGCCCGAGGGCGUGUCAAAUGAGAAGGCACAUGAGGAUCACCCAUGUGGGAC [Atisrage] (puzzle: Exclusion 4) next?
Result :: 39.8

Query :: Can you check AGUAGUUGUUUCCGUUCUUACAUGAGGAUCACCCAUGUUUCUUGUCGUGCUCGCGUUGCUCGUCAGACUUCCUGUUG [salish99_TOv1_r3_063] (puzzle: Sensor v3, turn-off variant 1) next?
Result :: 102

Origin of values: the supplement of paper PMC9170038
